Ref: patent US20190177417A1

Biological target: T1, Axl protein (human, UniProt P30530 26-451)
T1 construct: extracellular domain; also called human Axl; hAxl
T1 sequence (looked up): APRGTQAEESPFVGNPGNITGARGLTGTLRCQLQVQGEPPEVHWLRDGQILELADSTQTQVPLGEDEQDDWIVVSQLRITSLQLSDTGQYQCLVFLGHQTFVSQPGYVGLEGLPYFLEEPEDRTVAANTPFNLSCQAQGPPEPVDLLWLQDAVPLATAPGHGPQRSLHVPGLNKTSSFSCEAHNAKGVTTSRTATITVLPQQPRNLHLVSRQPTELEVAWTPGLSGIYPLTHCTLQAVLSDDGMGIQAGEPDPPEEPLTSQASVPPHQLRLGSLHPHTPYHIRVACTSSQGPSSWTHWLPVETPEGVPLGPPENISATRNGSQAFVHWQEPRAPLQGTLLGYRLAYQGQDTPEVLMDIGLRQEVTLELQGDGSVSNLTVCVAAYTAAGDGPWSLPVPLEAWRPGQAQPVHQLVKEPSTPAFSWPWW
Test: ELISA, 1:9 dilution, pH 6.0 over pH 7.4
Metric: Affinity ELISA CPE mutant ratio (1:9, pH 6.0/7.4) (ratio)

>  <Binder>
LC-V029G (antibody, V domains shown) VH: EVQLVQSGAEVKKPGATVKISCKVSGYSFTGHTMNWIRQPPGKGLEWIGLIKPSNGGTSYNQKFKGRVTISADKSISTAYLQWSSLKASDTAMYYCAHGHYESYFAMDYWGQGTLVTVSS VL: DIQMTQSPSSLSASVGDRVTITCKASQDGSSAVAWYQQKPGQAPRLLIYWASTRHTGVPSRFSGSGSGTEFTLTISSLQPDDFATYYCQEHFSTPLTFGQGTKVEIK

>  <Units>
ratio

>  <Value observed>
1.8

$$$$
>  <Binder>
LC-P095T (antibody, V domains shown) VH: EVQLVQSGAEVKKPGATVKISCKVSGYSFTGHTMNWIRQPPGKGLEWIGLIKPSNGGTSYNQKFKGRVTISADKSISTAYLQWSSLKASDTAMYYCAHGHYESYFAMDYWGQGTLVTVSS VL: DIQMTQSPSSLSASVGDRVTITCKASQDVSSAVAWYQQKPGQAPRLLIYWASTRHTGVPSRFSGSGSGTEFTLTISSLQPDDFATYYCQEHFSTTLTFGQGTKVEIK

>  <Units>
ratio

>  <Value observed>
2.09

$$$$
>  <Binder>
LC-A034N (antibody, V domains shown) VH: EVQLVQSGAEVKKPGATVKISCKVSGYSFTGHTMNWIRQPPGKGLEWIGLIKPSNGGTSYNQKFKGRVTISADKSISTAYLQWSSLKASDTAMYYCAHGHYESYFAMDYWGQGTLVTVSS VL: DIQMTQSPSSLSASVGDRVTITCKASQDVSSAVNWYQQKPGQAPRLLIYWASTRHTGVPSRFSGSGSGTEFTLTISSLQPDDFATYYCQEHFSTPLTFGQGTKVEIK

>  <Units>
ratio

>  <Value observed>
2.4

$$$$
